Biological target: HpαCA (Helicobacter pylori, UniProt B5Z8I0)
Construct: gene HPG27_1129; recombinant, obtained in-house; PDB 4XFW is given for docking only
Sequence (B5Z8I0 22-247): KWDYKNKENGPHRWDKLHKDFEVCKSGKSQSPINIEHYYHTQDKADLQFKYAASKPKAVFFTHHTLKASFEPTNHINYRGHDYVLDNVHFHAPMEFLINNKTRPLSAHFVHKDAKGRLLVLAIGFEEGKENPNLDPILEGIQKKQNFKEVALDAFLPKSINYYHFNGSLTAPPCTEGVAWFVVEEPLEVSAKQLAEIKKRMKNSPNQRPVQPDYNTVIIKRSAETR
Experiment: stopped-flow CO2 hydration
Assay type: biochemical
Conditions: read-out: KI (nM) / Bacterial Isoforms / Hp αCA
Listing: Ki of selected compounds
Outcome measure: Ki (nM)

                                        mol  outcome_measure  units_label  value
0  O=[N+]([O-])c1cccc(S(=O)(=O)Nc2ccc(N=Nc3ccccc3)cc2)c1               Ki           nM   70.9
1  COc1ccc(S(=O)(=O)Nc2ccc(N=Nc3ccccc3)cc2)c(OC)c1               Ki           nM   71.3
2          CS(=O)(=O)Nc1ccc(N=Nc2ccccc2)cc1               Ki           nM   89.8
3  O=S(=O)(Cc1ccccc1)Nc1ccc(N=Nc2ccccc2)cc1               Ki           nM     79
4         CCS(=O)(=O)Nc1ccc(N=Nc2ccccc2)cc1               Ki           nM   68.4
5   O=S(=O)(Nc1ccc(N=Nc2ccccc2)cc1)c1ccccc1               Ki           nM    460
6  N#Cc1ccc(S(=O)(=O)Nc2ccc(N=Nc3ccccc3)cc2)cc1               Ki           nM   75.6
7  Cc1ccc(S(=O)(=O)Nc2ccc(N=Nc3ccccc3)cc2)cc1[N+](=O)[O-]               Ki           nM    604
8  N#Cc1ccc(S(=O)(=O)Nc2ccc(N=Nc3ccccc3)cc2)c(Cl)c1               Ki           nM   77.6
9  O=S(=O)(Nc1ccc(N=Nc2ccccc2)cc1)c1ccc(Cl)s1               Ki           nM   55.8

* * *

molecular target: hCA XII (Homo sapiens); construct: gene CA12; experiment: stopped-flow CO2 hydration; assay type: biochemical; conditions: read-out: KI (nM) * / Human Isoforms / hCA XII
Sequence (O43570 30-289 limits assumed): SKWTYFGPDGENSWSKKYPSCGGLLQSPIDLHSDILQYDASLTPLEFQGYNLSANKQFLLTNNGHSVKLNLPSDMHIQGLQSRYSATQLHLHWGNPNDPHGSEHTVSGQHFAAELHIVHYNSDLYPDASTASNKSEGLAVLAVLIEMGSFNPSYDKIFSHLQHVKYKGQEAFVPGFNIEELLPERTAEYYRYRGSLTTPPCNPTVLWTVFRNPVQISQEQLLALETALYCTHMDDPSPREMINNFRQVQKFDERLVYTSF
Outcome measure: log10(Ki) (log10 of the value in nM)

>>> print(df.to_string())
                                        mol  outcome_measure  value
0  COc1ccc(O)c(/N=N/c2ccc(S(N)(=O)=O)cc2)c1        log10(Ki)   0.98
1  Cc1cc(/N=N/c2ccc(S(N)(=O)=O)cc2)c(C)cc1O        log10(Ki)   1.75
2  NS(=O)(=O)c1ccc(/N=N/c2ccc(O)c(C(F)(F)F)c2)cc1        log10(Ki)   1.60
3  Cc1cc(O)cc(C)c1/N=N/c1ccc(S(N)(=O)=O)cc1        log10(Ki)   1.81
4    COc1cc(/N=N/c2ccc(S(N)(=O)=O)cc2)ccc1O        log10(Ki)   1.34
5     Cc1cc(/N=N/c2ccc(S(N)(=O)=O)cc2)ccc1O        log10(Ki)   0.88
6    COc1cc(O)ccc1/N=N/c1ccc(S(N)(=O)=O)cc1        log10(Ki)   1.54
7     Cc1cc(O)ccc1/N=N/c1ccc(S(N)(=O)=O)cc1        log10(Ki)   1.92
8  NS(=O)(=O)c1ccc(/N=N/c2ccc(O)cc2C(F)(F)F)cc1        log10(Ki)   1.73
9   Cc1ccc(O)c(/N=N/c2ccc(S(N)(=O)=O)cc2)c1        log10(Ki)   0.98

* * *

biological target: hCA II (Homo sapiens, UniProt P00918); construct: gene CA2; purchased from Merck; experiment: biochemical; conditions: read-out: Human Isoforms / hCA II
Outcome measure: Ki

>>> df
                                   compound  outcome_measure     value
0  O=S(=O)(Cc1ccccc1)Nc1ccc(N=Nc2ccccc2)cc1 [5h]               Ki  > 100 µM
1  N#Cc1ccc(S(=O)(=O)Nc2ccc(N=Nc3ccccc3)cc2)c(Cl)c1 [5c]               Ki   24.7 µM
2  Cc1ccc(S(=O)(=O)Nc2ccc(N=Nc3ccccc3)cc2)cc1[N+](=O)[O-] [5e]               Ki  > 100 µM
3  O=[N+]([O-])c1cccc(S(=O)(=O)Nc2ccc(N=Nc3ccccc3)cc2)c1 [5d]               Ki  > 100 µM
4  N#Cc1ccc(S(=O)(=O)Nc2ccc(N=Nc3ccccc3)cc2)cc1 [5b]               Ki  > 100 µM

* * *

Ki values for the compounds below.
target: PgiβCA; construct: gene PgiCAb; recombinant, obtained in-house; test: stopped-flow CO2 hydration; format: biochemical, Porphyromonas gingivalis; conditions: pH […] HEPES, […] Na2SO4, […] min preincubation, r.t.; read-out: KI (nM) * / Bacterial Isoforms / Pgi βCA
Outcome measure: Ki

>>> df
                                        mol  measurement_target  outcome_measure    value
0  NS(=O)(=O)c1ccc(/N=N/c2ccc(O)cc2C(F)(F)F)cc1              PgiβCA               Ki   899 nM
1  NS(=O)(=O)c1ccc(/N=N/c2ccc(O)c(C(F)(F)F)c2)cc1              PgiβCA               Ki  3170 nM
2   Cc1ccc(O)c(/N=N/c2ccc(S(N)(=O)=O)cc2)c1              PgiβCA               Ki  3850 nM
3    COc1cc(/N=N/c2ccc(S(N)(=O)=O)cc2)ccc1O              PgiβCA               Ki  1920 nM
4     Cc1cc(O)ccc1/N=N/c1ccc(S(N)(=O)=O)cc1              PgiβCA               Ki  5780 nM
5  Cc1cc(/N=N/c2ccc(S(N)(=O)=O)cc2)c(C)cc1O              PgiβCA               Ki  3760 nM
6    COc1cc(O)ccc1/N=N/c1ccc(S(N)(=O)=O)cc1              PgiβCA               Ki  3630 nM
7  COc1ccc(O)c(/N=N/c2ccc(S(N)(=O)=O)cc2)c1              PgiβCA               Ki   803 nM
8     Cc1cc(/N=N/c2ccc(S(N)(=O)=O)cc2)ccc1O              PgiβCA               Ki  2070 nM
9  Cc1cc(O)cc(C)c1/N=N/c1ccc(S(N)(=O)=O)cc1              PgiβCA               Ki  3670 nM

* * *

biological target: hCA I (Homo sapiens, UniProt P00915); construct: gene CA1; purchased from Merck; experiment: biochemical; conditions: read-out: Human Isoforms / hCA I
Sequence (P00915 2-261): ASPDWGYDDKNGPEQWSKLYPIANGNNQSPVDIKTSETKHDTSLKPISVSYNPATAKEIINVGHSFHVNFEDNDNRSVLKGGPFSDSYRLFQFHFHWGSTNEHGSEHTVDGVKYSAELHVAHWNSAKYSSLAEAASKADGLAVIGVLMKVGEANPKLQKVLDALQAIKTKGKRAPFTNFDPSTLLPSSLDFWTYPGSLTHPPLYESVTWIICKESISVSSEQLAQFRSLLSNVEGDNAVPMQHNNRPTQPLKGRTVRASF
pKi: −log10 of the molar value.
Outcome measure: pKi

>>> df
                                        mol  value
0          CS(=O)(=O)Nc1ccc(N=Nc2ccccc2)cc1   5.22
1  N#Cc1ccc(S(=O)(=O)Nc2ccc(N=Nc3ccccc3)cc2)c(Cl)c1   6.04
2  O=S(=O)(Cc1ccccc1)Nc1ccc(N=Nc2ccccc2)cc1   5.26
3  COc1ccc(S(=O)(=O)Nc2ccc(N=Nc3ccccc3)cc2)c(OC)c1   6.04
4  Cc1ccc(S(=O)(=O)Nc2ccc(N=Nc3ccccc3)cc2)cc1[N+](=O)[O-]   6.07
5  O=[N+]([O-])c1cccc(S(=O)(=O)Nc2ccc(N=Nc3ccccc3)cc2)c1   5.17
6  N#Cc1ccc(S(=O)(=O)Nc2ccc(N=Nc3ccccc3)cc2)cc1   6.44
7  O=S(=O)(Nc1ccc(N=Nc2ccccc2)cc1)c1ccc(Cl)s1   6.04
8         CCS(=O)(=O)Nc1ccc(N=Nc2ccccc2)cc1   6.03
9   O=S(=O)(Nc1ccc(N=Nc2ccccc2)cc1)c1ccccc1   6.68
